Property: viability, T/C; scope: individual molecules
Test system: 454973-116-R2-J3-PDC spheroids, percent test/control viability;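 also: spheroids exposed to compounds for 7 days before readout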
Test: Anticancer human tumor 454973-116-R2-J3-PDC patient-derived pancreatic carcinoma cell line growth inhibition [CLK]
Conditions: second compound 1 µM; first compound 1 µM; active compounds read low; spheroids with HUVEC and MSC
Field: numeric (%). Do not append units.

molecule	experimental system	viability, T/C, %
CC1COCCN1c1cc(C2(S(C)(=N)=O)CC2)nc(-c2ccnc3[nH]ccc23)n1 (stereo unspecified) + CN1CCN(c2cc(C(=O)Nc3cc4cc(-c5cnn(C)c5)ccc4cn3)ccn2)CC1	454973-116-R2-J3-PDC spheroids, percent test/control viability	0.1
CC(=O)O[C@H]1C(=O)[C@@]2(C)[C@H]([C@H](OC(=O)c3ccccc3)[C@]3(O)C[C@H](OC(=O)[C@H](O)[C@@H](NC(=O)c4ccccc4)c4ccccc4)C(C)=C1C3(C)C)[C@]1(OC(C)=O)CO[C@@H]1C[C@@H]2O + CN1CCN(c2cc(C(=O)Nc3cc4cc(-c5cnn(C)c5)ccc4cn3)ccn2)CC1	454973-116-R2-J3-PDC spheroids, percent test/control viability	0.07
COc1c(OCCCN2CCOCC2)ccc2c3n(c(=NC(=O)c4cnc(N)nc4)nc12)CCN3 + CNC(=O)c1ccc(Nc2nc(OC3CCCC3)c3c(-c4ccc5nc(C)oc5c4)c[nH]c3n2)c(OC)c1	454973-116-R2-J3-PDC spheroids, percent test/control viability	4.63
Nc1ccccc1NC(=O)c1ccc(CNC(=O)OCc2cccnc2)cc1 + CN1CCN(c2cc(C(=O)Nc3cc4cc(-c5cnn(C)c5)ccc4cn3)ccn2)CC1	454973-116-R2-J3-PDC spheroids, percent test/control viability	0.08
C=C(F)C(=O)N1CCN(c2nc(OCC3CCCN3C)nc3c2CCN(c2cccc4cccc(Cl)c24)C3)CC1CC#N (stereo unspecified) + CNC(=O)c1ccc(Nc2nc(OC3CCCC3)c3c(-c4ccc5nc(C)oc5c4)c[nH]c3n2)c(OC)c1	454973-116-R2-J3-PDC spheroids, percent test/control viability	36.5
COc1c(OCCCN2CCOCC2)ccc2c3n(c(=NC(=O)c4cnc(N)nc4)nc12)CCN3 + CN1CCN(c2cc(C(=O)Nc3cc4cc(-c5cnn(C)c5)ccc4cn3)ccn2)CC1	454973-116-R2-J3-PDC spheroids, percent test/control viability	1.26

Quick one: viability, T/C of CC(CO)NC(=O)c1cc(-c2ccc(Cl)cc2)nn(-c2cnn(C)c2)c1=O (stereo unspecified) + CNC(=O)c1ccc(Nc2nc(OC3CCCC3)c3c(-c4ccc5nc(C)oc5c4)c[nH]c3n2)c(OC)c1 ?
31.6

Quick one: viability, T/C of CCc1c2c(nc3ccc(O)cc13)-c1cc3c(c(=O)n1C2)COC(=O)[C@]3(O)CC + CN1CCN(c2cc(C(=O)Nc3cc4cc(-c5cnn(C)c5)ccc4cn3)ccn2)CC1 ?
0.09

Quick one: viability, T/C of Nc1ccn(C2OC(CO)C(O)C2(F)F)c(=O)n1 (stereo unspecified) + CNC(=O)c1ccc(Nc2nc(OC3CCCC3)c3c(-c4ccc5nc(C)oc5c4)c[nH]c3n2)c(OC)c1 ?
9.2

Quick one: viability, T/C of COc1ccc([C@@H](O)c2cc(-c3ncnc4cc(N5CCOCC5)ccc34)c(F)cc2Cl)nn1 + CNC(=O)c1ccc(Nc2nc(OC3CCCC3)c3c(-c4ccc5nc(C)oc5c4)c[nH]c3n2)c(OC)c1 ?
24.9

Quick one: viability, T/C of CCCS(=O)(=O)Nc1ccc(F)c(C(=O)c2c[nH]c3ncc(-c4ccc(Cl)cc4)cc23)c1F + CNC(=O)c1ccc(Nc2nc(OC3CCCC3)c3c(-c4ccc5nc(C)oc5c4)c[nH]c3n2)c(OC)c1 ?
37

Quick one: viability, T/C of O=C(c1cc(Cc2n[nH]c(=O)c3ccccc23)ccc1F)N1CCN(C(=O)C2CC2)CC1 + CN1CCN(c2cc(C(=O)Nc3cc4cc(-c5cnn(C)c5)ccc4cn3)ccn2)CC1 ?
0.08

Quick one: viability, T/C of COc1ccc([C@@H](O)c2cc(-c3ncnc4cc(N5CCOCC5)ccc34)c(F)cc2Cl)nn1 + CN1CCN(c2cc(C(=O)Nc3cc4cc(-c5cnn(C)c5)ccc4cn3)ccn2)CC1 ?
0.08

Quick one: viability, T/C of COc1cccc2c1C(=O)c1c(O)c3c(c(O)c1C2=O)CC(O)(C(=O)CO)CC3OC1CC(N)C(O)C(C)O1 (stereo unspecified) + CN1CCN(c2cc(C(=O)Nc3cc4cc(-c5cnn(C)c5)ccc4cn3)ccn2)CC1 ?
0.11

Quick one: viability, T/C of CC(CO)NC(=O)c1cc(-c2ccc(Cl)cc2)nn(-c2cnn(C)c2)c1=O (stereo unspecified) + CN1CCN(c2cc(C(=O)Nc3cc4cc(-c5cnn(C)c5)ccc4cn3)ccn2)CC1 ?
0.11

Quick one: viability, T/C of O=c1[nH]cc(F)c(=O)[nH]1 + CNC(=O)c1ccc(Nc2nc(OC3CCCC3)c3c(-c4ccc5nc(C)oc5c4)c[nH]c3n2)c(OC)c1 ?
20.6
